Source of measurements: the supplement of paper PMC7156485

Tested on: TDF;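 further: TDF denotes transformed human dermal fibroblasts of mesenchymal origin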
Experiment: cell number relative to DMSO (% of DMSO); higher = more cells (less growth inhibition / toxicity)
Settings: concentration: 10 µM; 24 h
Collected cell number values appear next to each entry.
Reply with just the number.

Solved entries (count: 3):
compound	experimental-value
CN1C2CCC1CC(OC(=O)c1c[nH]c3ccccc13)C2 (stereo unspecified)	92.9
CCC=CCC=CCC=CCC=CC=CC(O)CCCC(=O)O (racemic)	94.7
CCCCCC(O)CCCC(=O)[O-].[Na+] (stereo unspecified) [5-hydroxydecanoic acid sodium]	96

Ask: # get_value(readout='cell number', item= Cl.O=C(O)C1=CCCNC1 [Guvacine hydrochloride] )
Result: 99.1

Ask: Which cell number is listed for Cl.NCCc1ccc(O)c(O)c1 [Dopamine hydrochloride] ?
Result: 100

Ask: Query: cell number; subject: NCCS(=O)O
Result: 106
